system: MCF7; assay: NCI tumour cell line growth inhibition, 48 h
Active and inactive are the calls of the source. Cut-off read from the data, not from the text of the source: active = GI50 up to about 1.1 µM and inactive = higher.
The reply should be one of these categories: YES for active, NO for inactive

Below, 5 compounds whose answers are already recorded.
Cc1ccc(C)n1-c1ccccc1C1C=Cn2c(=O)oc3c(OC(C)C)c(OC(C)C)c(O)c1c32 (stereo unspecified) : NO
O=S(=O)(c1ccccc1)N1CCN(S(=O)(=O)c2ccccc2)c2ccccc21 : NO
CCCC(O)[C@@]1(CC)CC(C)C(O)(C2(C)C[C@H](C)[C@@H](C(CC)C(=O)C(C)[C@@H](O)[C@H](C)C3OC(O)(C(CC)C(=O)O)[C@@H](C)C(O)C3CC)O2)O1 (stereo partly specified) : YES
CC(C)(C)OC(=O)NCCc1ccc(N)cc1 : NO
COc1ccc(/C=C2/SC(c3ccc(Cl)cc3)N(NC(=O)CCCCCCCCC(=O)NN3C(=O)/C(=C\c4ccc(OC)c(OC)c4)SC3c3ccc(Cl)cc3)C2=O)cc1OC (stereo unspecified) : NO

Ask | // outcome(item) with item = "Cc1cc(O)c2c(c1O)C(=O)c1c(O)ccc(O)c1C2=O"
Reply | NO

Ask | // outcome(item) with item = "Cc1ccc(C)c(COCCOCn2c(=O)[nH]c(=O)c3cc(Br)ccc32)c1"
Reply | NO

Ask | // outcome(item) with item = COC12C=CC(CC1)C(C)(C)C2=O (stereo unspecified)
Reply | NO

Ask | // outcome(item) with item = "CCCC(=O)Nc1cn(COC)c(C(=O)N2C[C@H]3C[C@@]34C2=CC(=O)c2[nH]cc(C)c24)n1"
Reply | NO

Ask | // outcome(item) with item = "CC(C)(CNC(=O)/C(Cl)=C(/Cl)C(=O)O)CNC(=O)/C(Cl)=C(/Cl)C(=O)O"
Reply | NO

Ask | // outcome(item) with item = "C=C1[C@@H]([C@@]2(C)C=CC(=O)C(C)(C)[C@@H]2CC(=O)OC)CC[C@@]2(C)[C@H](c3ccoc3)OC(=O)[C@H]3O[C@]132"
Reply | NO

* * *

test system: HL-60; assay: NCI tumour cell line growth inhibition, 48 h
The source made the active and inactive calls. Rule as the data show it: active = GI50 up to about 1.1 µM and inactive = higher.
Measured Attribute: GI50

O=C(Nc1nncs1)NS(=O)(=O)n1cnc2ccccc21 : > 100 µM (inactive)

Ask | // lookup GI50 | system=HL-60 | key= CCOC(=O)C1C(=O)CC(O)(c2ccccc2)C(C(=O)OCC)C1c1ccc(OC)cc1 (configuration not stated)
Reply | 10.5 µM (inactive)

Ask | // lookup GI50 | system=HL-60 | key= "NC(=S)Nc1ccc(S(=O)(=O)Nc2ccc(S(N)(=O)=O)cc2)cc1"
Reply | > 100 µM (inactive)

Ask | // lookup GI50 | system=HL-60 | key= "COc1ccccc1/N=N/C(=N/NC(=O)c1ccc(C)cc1)c1ccc(N(CCC#N)CCC#N)cc1OC"
Reply | 10.8 µM (inactive)

Ask | // lookup GI50 | system=HL-60 | key= "CC(=O)OC(OC(C)=O)c1ccc2ccc3cccc4ccc1c2c34"
Reply | 9.38 µM (inactive)

Ask | // lookup GI50 | system=HL-60 | key= "Cc1[nH]c2ncn(N)c(=N)c2c1Cc1ccccc1"
Reply | 17.8 µM (inactive)

Ask | // lookup GI50 | system=HL-60 | key= COC(=O)C1(C(=O)OC)N=C(C)OC1c1ccccn1 (configuration not stated)
Reply | > 100 µM (inactive)
